The compounds listed here are annotated with their pIC50.
# assay target: human CGT (Homo sapiens, UniProt Q16880)
# Sequence (Q16880 21-541): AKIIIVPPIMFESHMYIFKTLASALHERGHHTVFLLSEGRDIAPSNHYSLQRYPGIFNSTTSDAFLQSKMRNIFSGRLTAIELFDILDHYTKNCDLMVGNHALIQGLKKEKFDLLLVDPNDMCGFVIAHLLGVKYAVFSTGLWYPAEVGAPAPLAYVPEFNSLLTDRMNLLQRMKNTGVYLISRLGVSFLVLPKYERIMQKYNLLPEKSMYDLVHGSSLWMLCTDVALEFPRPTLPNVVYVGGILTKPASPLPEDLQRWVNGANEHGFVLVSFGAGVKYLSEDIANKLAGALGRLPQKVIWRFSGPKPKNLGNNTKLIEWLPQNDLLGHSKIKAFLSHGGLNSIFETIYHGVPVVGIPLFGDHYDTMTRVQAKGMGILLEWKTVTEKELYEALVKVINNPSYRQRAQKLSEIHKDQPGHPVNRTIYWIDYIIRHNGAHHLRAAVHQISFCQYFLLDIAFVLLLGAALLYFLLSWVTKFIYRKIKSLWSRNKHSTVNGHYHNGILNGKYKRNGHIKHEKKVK
# assay method text: CGT Enzyme Assay (Biological Example 2, RapidFire/MS/MS method with 0.01% Tween 80 added)
# Assay type: biochemical
# setup conditions: enzymatic assay, CHO/CGT lysate
pIC50: −log10 of the molar value.

Answered examples (5):
[[record]]
compound = "CC[C@]1(C)[C@H](c2cccc(OC(F)(F)F)c2)N(c2ccc(Cl)cc2)C(=O)N1c1ccc(Cl)cc1"
reading = "> 6.00"

[[record]]
compound = "CCC[C@@]1(C)[C@H](c2cccc(C#N)c2)N(c2ccc(Cl)cc2)C(=O)N1c1ccc(Cl)cc1"
reading = "5.00 to 6.00"

[[record]]
compound = "CCC[C@@]1(C)[C@H](c2cccc(OC(F)(F)F)c2)N(c2ccc(Cl)cc2)C(=O)N1c1ccc(Cl)cc1"
reading = "4.52 to 5.00"

[[record]]
compound = "Cc1ccc(N2C(=O)N(c3ccc(C#N)cc3)[C@@H](c3cccc(C#N)c3)C2(C)C)cc1"
reading = "> 6.00"

[[record]]
compound = "CCC[C@@]1(C)[C@@H](c2cccc(C#N)c2)N(c2ccc(Cl)cc2)C(=O)N1c1ccc(Cl)cc1"
reading = "> 6.00"


Which value of pIC50 has been reported for C[C@]1(C(F)(F)F)[C@@H](c2cccc(C#N)c2)N(c2ccc(Cl)cc2)C(=O)N1c1ccc(Cl)cc1 in the records?
> 6.00

Which value of pIC50 has been reported for O=C1N(c2ccc(Cl)cc2)C2CCOC[C@@]2(c2cccc(OC(F)(F)F)c2)N1c1ccc(Cl)cc1 (some centres unmarked) in the records?
> 6.00

Which value of pIC50 has been reported for Cc1ccc(N2C(=O)N(c3ccc(Cl)cc3)[C@@H](c3cccc(OC(F)(F)F)c3)C23COC3)cc1 in the records?
> 6.00

Which value of pIC50 has been reported for C[C@@H]1[C@@H](c2cccc(C#N)c2)N(c2ccc(Cl)cc2)C(=O)N1c1ccc(Cl)cc1 in the records?
4.52 to 5.00

Which value of pIC50 has been reported for Cc1ccc(N2C(=O)N(c3ccc(C#N)cc3)C(C)(C)[C@H]2c2cccc(C#N)c2)cc1 in the records?
4.52 to 5.00

Which value of pIC50 has been reported for N#Cc1cccc([C@H]2N(c3ccc(Cl)cc3)C(=O)N(c3ccc(Cl)cc3)C23COC3)c1 in the records?
4.52 to 5.00

Which value of pIC50 has been reported for CCC[C@]1(C)[C@@H](c2cccc(OC(F)(F)F)c2)N(c2ccc(C#N)cc2)C(=O)N1c1ccc(C#N)cc1 in the records?
5.00 to 6.00

Which value of pIC50 has been reported for Cc1ccc(N2C(=O)N(c3ccc(C)cc3)C3(CCCC3)[C@H]2c2cccc(OC(F)(F)F)c2)cc1 in the records?
5.00 to 6.00

Which value of pIC50 has been reported for CCC[C@]1(C)[C@H](c2cccc(C#N)c2)N(c2ccc(Cl)cc2)C(=O)N1c1ccc(Cl)cc1 in the records?
5.00 to 6.00

src = patent US20190134005A1
